target: Dual specificity tyrosine-phosphorylation-regulated kinase 1A (Rattus norvegicus) (UniProt Q63470); test: Inhibition of rat GST-fused Dyrk1a expressed in Escherichia coli assessed as residual enzyme activity at 10 uM
The entries below come with measured Activity values attached.

Sample records with Activity:
CC(=O)OC[C@H]1O[C@@H](N2C(=O)/C(=C3/C(=O)Nc4ncc(Br)cc43)c3cc(Br)ccc32)[C@H](OC(C)=O)[C@@H](OC(C)=O)[C@@H]1OC(C)=O = > 65%
CC(=O)OC[C@H]1O[C@@H](N2C(=O)/C(=C3/C(=O)Nc4ccc(I)cc43)c3ccccc32)[C@H](OC(C)=O)[C@@H](OC(C)=O)[C@@H]1OC(C)=O = > 65%

Lookup result for `CC(=O)OC[C@H]1O[C@@H](N2C(=O)/C(=C3/C(=O)Nc4ccc(I)cc43)c3cc(Br)ccc32)[C@H](OC(C)=O)[C@@H](OC(C)=O)[C@@H]1OC(C)=O` ; measured Activity: > 65%

Lookup result for `CC(=O)OC[C@H]1O[C@@H](N2C(=O)/C(=C3/C(=O)Nc4ccc(C#CCNC(=O)OCc5ccccc5)cc43)c3ccccc32)[C@H](OC(C)=O)[C@@H](OC(C)=O)[C@@H]1OC(C)=O` ; measured Activity: > 65%

Lookup result for `CC(=O)OC[C@H]1O[C@@H](N2C(=O)/C(=C3/C(=O)Nc4ncc(I)cc43)c3ccccc32)[C@H](OC(C)=O)[C@@H](OC(C)=O)[C@@H]1OC(C)=O` ; measured Activity: > 65%

Lookup result for `CC(=O)OC[C@H]1O[C@@H](N2C(=O)/C(=C3/C(=O)Nc4ccc(C#CCNC(=O)OCc5ccccc5)cc43)c3cc(Br)ccc32)[C@H](OC(C)=O)[C@@H](OC(C)=O)[C@@H]1OC(C)=O` ; measured Activity: > 65%

Lookup result for `CC(=O)OC[C@H]1O[C@@H](N2C(=O)/C(=C3/C(=O)Nc4ccc(C#CCCO)cc43)c3ccccc32)[C@H](OC(C)=O)[C@@H](OC(C)=O)[C@@H]1OC(C)=O` ; measured Activity: > 65%

Lookup result for `CC(=O)OC[C@H]1O[C@@H](N2C(=O)/C(=C3/C(=O)Nc4ncc(C#CCNC(=O)OCc5ccccc5)cc43)c3ccccc32)[C@H](OC(C)=O)[C@@H](OC(C)=O)[C@@H]1OC(C)=O` ; measured Activity: > 65%

Lookup result for `CC(=O)OC[C@H]1O[C@@H](N2C(=O)/C(=C3/C(=O)Nc4ncc(Br)cc43)c3ccccc32)[C@H](OC(C)=O)[C@@H](OC(C)=O)[C@@H]1OC(C)=O` ; measured Activity: > 65%
